Data credit: patent US8329707B2

measuredOn: recombinant human hepatic type GK (GST-hGK2) (Homo sapiens, UniProt P35557)
Construct: made in house; host or cells: Escherichia coli BL21
Sequence (P35557 1-466 isoform P35557-2): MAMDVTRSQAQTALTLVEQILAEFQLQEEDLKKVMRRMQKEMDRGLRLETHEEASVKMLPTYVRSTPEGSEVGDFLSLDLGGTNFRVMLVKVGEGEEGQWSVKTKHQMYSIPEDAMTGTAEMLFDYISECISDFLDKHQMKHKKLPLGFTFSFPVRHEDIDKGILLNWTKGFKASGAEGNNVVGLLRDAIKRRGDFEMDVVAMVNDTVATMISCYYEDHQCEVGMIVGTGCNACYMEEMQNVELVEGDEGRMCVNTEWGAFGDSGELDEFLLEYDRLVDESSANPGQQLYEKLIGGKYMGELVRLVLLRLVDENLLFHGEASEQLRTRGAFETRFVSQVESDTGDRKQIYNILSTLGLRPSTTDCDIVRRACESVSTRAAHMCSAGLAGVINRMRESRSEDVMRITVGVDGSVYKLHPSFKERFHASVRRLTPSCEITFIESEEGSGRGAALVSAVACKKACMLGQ
testDetails: Measurement of glucokinase (GK) activation
Assay type: biochemical
appliedConditions: 10 min; test compound final concentration 10 μM; 5 mM glucose; 27° C.; increase of absorbance at 340 nm during first 10 minutes vs DMSO; read-out: GK activation (%)
Structures can show the parent of a compound that is named as a salt.
This listing pairs compounds with measured activation at 10 µM.
Express the result in % but write the number alone.

Example entries begin here.
1) Cn1ccc(NC(=O)/C(=C/[C@H]2CCC(=O)C2)c2ccc(S(=O)(=O)C3CC3)c(C3CC3)c2)n1 : 355
2) COc1cnc(NC(=O)[C@H](C[C@H]2CCC(O)C2)c2ccc(S(=O)(=O)C3CC3)c(C3CC3)c2)cn1 (stereo partly shown) : 297
3) O=C1CC[C@@H](/C=C(/C(=O)Nc2ncc(Cl)s2)c2ccc(S(=O)(=O)C3CC3)c(C3CC3)c2)C1 : 265
4) O=C(Nc1ncc(Cl)s1)/C(=C/C1CCOC1)c1ccc(S(=O)(=O)C2CC2)c(C2CC2)c1 (stereo not shown) : 211
5) Cn1ccc(NC(=O)/C(=C/C2CCOC2)c2ccc(S(=O)(=O)C3CC3)c(C3CC3)c2)n1 (stereo not shown) : 334
6) Cc1cnc(NC(=O)[C@H](C[C@H]2CCC(O)C2)c2ccc(S(=O)(=O)C3CC3)c(C3CC3)c2)cn1 (stereo partly shown) : 273
7) O=C1CC[C@H](/C=C(/C(=O)Nc2ccc(C(=O)O)cn2)c2ccc(S(=O)(=O)C3CC3)c(C3CC3)c2)C1 [Example 5, monohydrochloride] : 410
8) CC(O)c1cnc(NC(=O)[C@H](C[C@H]2CCC(=O)C2)c2ccc(S(=O)(=O)C3CC3)c(C3CC3)c2)cn1 (stereo partly shown) : 345

// next item, activation at 10 µM requested
Which measured activation at 10 µM value corresponds to O=C1CCC(/C=C(/C(=O)Nc2ncc(Cl)s2)c2ccc(S(=O)(=O)C3CC3)c(C3CC3)c2)C1 (stereo not shown) ?
375

###

measuredOn: recombinant human hepatic type GK (GST-hGK2) (Homo sapiens)
Construct: made in house; host or cells: Escherichia coli BL21
Sequence (P35557 1-466 isoform P35557-2): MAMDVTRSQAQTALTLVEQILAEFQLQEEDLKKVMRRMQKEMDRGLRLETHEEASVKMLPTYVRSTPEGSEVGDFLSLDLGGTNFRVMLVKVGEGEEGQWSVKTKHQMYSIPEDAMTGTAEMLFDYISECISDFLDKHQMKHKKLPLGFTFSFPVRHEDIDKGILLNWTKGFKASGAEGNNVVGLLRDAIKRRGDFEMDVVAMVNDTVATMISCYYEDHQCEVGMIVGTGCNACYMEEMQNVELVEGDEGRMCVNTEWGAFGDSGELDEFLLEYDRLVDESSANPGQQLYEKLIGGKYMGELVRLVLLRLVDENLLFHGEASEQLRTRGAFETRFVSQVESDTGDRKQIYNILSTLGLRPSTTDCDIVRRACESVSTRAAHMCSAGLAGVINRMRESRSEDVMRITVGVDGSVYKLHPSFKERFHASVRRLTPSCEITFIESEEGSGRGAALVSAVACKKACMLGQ
testDetails: Measurement of glucokinase (GK) activation
Format: biochemical
appliedConditions: 10 min; test compound final concentration 10 μM; 5 mM glucose; 27° C.; increase of absorbance at 340 nm during first 10 minutes vs DMSO; read-out: GK activation (%)
Where a name gives a salt, the structure may show the parent alone.
activation at 10 µM reference
# output: bare number, implied unit %

Which value of activation at 10 µM has been reported for O=C1CC[C@H](/C=C(/C(=O)Nc2nccs2)c2ccc(S(=O)(=O)C3CC3)c(C3CC3)c2)C1 [Example 40] in the records?
397

Quick check: activation at 10 µM of COc1cnc(NC(=O)[C@H](C[C@H]2CCC(=O)C2)c2ccc(S(=O)(=O)C3CC3)c(C3CC3)c2)cn1 [Example 72] ?
311

Given O=C1CCC(/C=C(/C(=O)Nc2cnc(CO)cn2)c2ccc(S(=O)(=O)C3CC3)c(C3CC3)c2)C1 (stereo not shown) [Example 6] , state its recorded activation at 10 µM.
336

Param item = Cc1ccc(NC(=O)[C@H](C[C@H]2CCC(=O)C2)c2ccc(S(=O)(=O)C3CC3)c(C3CC3)c2)nc1 [Example 9, monohydrochloride] ; retrieve measured activation at 10 µM.
333

Which activation at 10 µM is listed for Cn1ccc(NC(=O)/C(=C/C2CCC(=O)C2)c2ccc(S(=O)(=O)C3CC3)c(C3CC3)c2)n1 (stereo not shown) [Example 32] ?
410

I am curious: what activation at 10 µM value has been reported for Cc1cnc(NC(=O)/C(=C/C2CCOC2)c2ccc(S(=O)(=O)C3CC3)c(C3CC3)c2)cn1 (stereo not shown) [Example 29] ?
300

Fill in the blank: the reported activation at 10 µM of Cn1ccc(NC(=O)/C(=C/C2CCCC2)c2ccc(S(=O)(=O)C3CC3)c(C3CC3)c2)n1 [Example 24] is ____.
345
